In this section we review reported protein stability index values for a set of sequences.
test system: Saccharomyces cerevisiae; experiment: protein stability index of tFT-peptide fusion (C-terminal peptide) (PSI (0-1 scale)); higher = more stable (slower turnover); conditions: genetic background: cdc34-1; temperature: 37 C;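 also: PSI is a weighted mean of sequencing reads over stability bins, variants kept only with over 10 reads, mCherry proximal and sfGFP distal, peptide attached via GGGS linker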
Lab note: record just the number, no unit beside it.

WEISNFFGCFIG : 0.671
RCSLRLRFIFVR : 0.0761
SNFFPVPLLLFR : 0.211
SSVCYFGLLFIV : 0.452
VFLVFSVWVVYR : 0.2
GGVFYVFFVFVG : 0.19
FLVLFYCTFWVR : 0.162
GLIICRRCLWCC : 0.49
LVCSRFLFAFHC : 0.457
SSGSLLLPRFLT : 0.658

// below: protein stability index requested for another sequence
stdin: May I ask what protein stability index has been recorded for WVVWVLVGGFGG ?
stdout: 0.299

---

tested on: Saccharomyces cerevisiae; assay: protein stability index of tFT-peptide fusion (C-terminal peptide) (PSI (0-1 scale)); higher = more stable (slower turnover); details: genetic background: doa10 deletion; temperature: 30 C
The threshold is inclusive: protein stability index of exactly 0.3 counts as yes; values below receive no.

stdin: Quick check: does KLLGVLFVLFPG have protein stability index greater than or equal to 0.3?
stdout: yes

stdin: Moving on to FFLFILYFGSCF
stdout: yes

stdin: Moving on to LPPSTFLLHFLL
stdout: no

stdin: Moving on to CHFLLPFLFTCA
stdout: no

stdin: Moving on to DILQITNIKQKR
stdout: yes

stdin: Moving on to PSFSLLRSLTLI
stdout: no

stdin: Moving on to LNSSVLRLRFFV
stdout: no

---

system: Saccharomyces cerevisiae; assay: protein stability index of tFT-peptide fusion (C-terminal peptide) (PSI (0-1 scale)); higher = more stable (slower turnover); details: genetic background: wild type; temperature: 30 C
In this section we review reported protein stability index values for a set of sequences.
Lab note: record just the number, no unit beside it.

// solved cases for protein stability index follow
PPTANLAHSSHP : 0.693
TPGMCDRQFGVD : 0.685
VNPWLRCSFRFW : 0.688
LSAVRFGRVWGG : 0.696
RRAESRNEKQHS : 0.687

stdin: May I ask what protein stability index has been recorded for RPVPPPLPSPPP ?
stdout: 0.702

stdin: Moving on to PFSLLPDASPPL
stdout: 0.703

---

In this section we review reported protein stability index values for a set of sequences.
tested on: Saccharomyces cerevisiae; assay: protein stability index of tFT-peptide fusion (C-terminal peptide) (PSI (0-1 scale)); higher = more stable (slower turnover); conditions: genetic background: wild type; temperature: 30 C
Lab note: record just the number, no unit beside it.

// solved cases for protein stability index follow
SISYCSAFGGID : 0.697
SPPLRPPAPLVL : 0.631

stdin: May I ask what protein stability index has been recorded for GFVRYPYFAFGR ?
stdout: 0.687

stdin: Moving on to PPPPLDSFPFIT
stdout: 0.701

stdin: Moving on to VLTPLPWSRCSP
stdout: 0.702

stdin: Moving on to PPPPPLAIPHPT
stdout: 0.726

stdin: Moving on to CWYRCLLSCLVL
stdout: 0.656

---

In this section we review reported protein stability index values for a set of sequences.
test system: Saccharomyces cerevisiae; assay: protein stability index of tFT-peptide fusion (C-terminal peptide) (PSI (0-1 scale)); higher = more stable (slower turnover); conditions: genetic background: wild type; temperature: 30 C
Lab note: record just the number, no unit beside it.

DGNDSILTKLPL : 0.714
IDYCWLPDGYQM : 0.683

stdin: May I ask what protein stability index has been recorded for PLPPLPPTRPLP ?
stdout: 0.688

stdin: Moving on to VVGSVQQSSDSC
stdout: 0.692

stdin: Moving on to SNLLKQHKDLFL
stdout: 0.716

stdin: Moving on to PHAGPLHTPLRL
stdout: 0.699

stdin: Moving on to APEGGEAQVLPA
stdout: 0.684

stdin: Moving on to FPFLPPRSVSPP
stdout: 0.696

stdin: Moving on to CCCVGRGVGSRF
stdout: 0.703

stdin: Moving on to PPPPPPNPLPLP
stdout: 0.68

stdin: Moving on to PIVRTQLGNSVQ
stdout: 0.696
